- system_under_test: T1, Human 4-1BB extracellular domain recombinant protein (his-tag) (human, UniProt Q07011 24-186)
- T1 construct: extracellular domain; also called Human4-1BB, his-tag; human 4-1BB extracellular region recombinant protein; not shown: his-tag
- procedure_text: ELISA, coated human 4-1BB-his 200 ng/well; antibody 0.37 µg/ml
quantity: absorbance at 450 nm

# binder, measured_result
data = [
    ("137-39 VHH-hFc recombinant antibody (Fc fusion, VHH fragment inserted into vector pFclG with human IgG1 Fc tag, expressed in HEK293F; Preparation had non-specific bands, purity about 30%; not shown: human IgG1 Fc tag of the eukaryotic expression vector pFclG) QVQLVESGGGLVHVGESLTLSCVISGGSSNLYGIGWYRQAPGQERKLVAVLHNEHTTKYLDSVKGRFFVSGDNAKNTLYLHMNNVKVEDTAVYYCNSASGTLAGTGYFASVGPWGQGTLVTVSS", 0.458),
    ("137-16 VHH-hFc recombinant antibody (Fc fusion, VHH fragment inserted into vector pFclG with human IgG1 Fc tag, expressed in HEK293F; Preparation had non-specific bands, purity >70%; also called CD137-16; not shown: human IgG1 Fc tag of the eukaryotic expression vector pFclG) EVQLVESGGGLVQAGASLTLSCVISGRTFSSYAMGWYRQAPGKERAFVGTITWNNDIIYSDSVKGRFTISTDDGKNTMYLQMNNLKPEDTAVYYCAAYSVPYGDFCTLNYDLMDYWGKGTLVTVSS", 1.58),
    ("137-18 VHH-hFc recombinant antibody (Fc fusion, VHH fragment inserted into vector pFclG with human IgG1 Fc tag, expressed in HEK293F; also called CD137-18; not shown: human IgG1 Fc tag of the eukaryotic expression vector pFclG) QVQLVESGGGLVHPGGSLRLSCAASGFIFSLYTMSWVRQAPGKGLEWVSDINSGGDSTDYADSVKGRFTISRDNAKSTLYLQMNSLKPEDTAVYYCAKDYPLGQREDYWGQGTQVTVSS", 0.732),
]

Values were extracted from patent EP4592317A1.
